# System: OVCAR-3
# MEASUREMENT_DESCRIPTION: NCI tumour cell line growth inhibition, 48 h
Activity calls are given as the source filed them. Rule as the data show it: active = GI50 up to about 1.1 µM and inactive = higher.
Outcome codes: Yes for active, No for inactive

{"columns": ["COMPOUND", "ASSIGNED_LABEL"],
 "data": [
  ["C(=N\\Nc1nnc(-c2nnc(N/N=C/c3ccccc3)o2)o1)/c1ccccc1", "No"],
  ["CC(=O)OCC1OC(c2nc3ccccc3s2)=CC(OC(C)=O)C1OC(C)=O (stereo unspecified)", "No"],
  ["O=C(c1cc2c(c3ccccc13)NC1(CCCCC1)N=C2C(F)(F)F)C(F)(F)F", "No"],
  ["CNC(=O)OCc1nc(SC)n(C)c1CO", "No"],
  ["Clc1ccc(COc2ccccc2/C=N/c2c(-c3ccco3)nc3ccccn23)c(Cl)c1", "No"],
  ["Cc1ncc2c(=O)c3c(oc2n1)c1ccccc1n3Cc1ccccc1", "No"],
  ["CCN(CC)CCN(/C(=N/c1ccccc1)N1CCCCC1)c1ccccc1", "No"],
  ["O=C1C=CC(=O)N1c1ccc2c(c1)Cc1cc(NC(=O)C(F)(F)F)ccc1-2", "No"],
  ["CCOC(=O)NC(=O)c1cn(C2CCCCC2)c(=O)n(C)c1=O", "No"],
  ["Cc1ccc2nc(C(C)C)c(=O)[nH]c2c1", "No"],
  ["COc1ccc(S(=O)(=O)NC(C)C(=O)O)cc1 (stereo unspecified)", "No"],
  ["O=C(O)CN1CCN2CCCCCCCCN(CC1)CCN(CC(=O)O)CC2", "No"],
  ["COc1cc(C2c3[nH]c4ccccc4c3[C@@H](Nc3ccc(C#N)cc3)[C@H]3COC(=O)N23)cc(OC)c1O (stereo partly specified)", "Yes"],
  ["COc1cc2nc(-c3cccs3)nc(N3C(c4cc(OC)c(OC)c(OC)c4)=NNC(=O)c4ccccc43)c2cc1OC", "No"],
  ["CC(C)OP(=O)(OC(C)C)C(C(C)C)N(C)/C(N)=N\\C1=NC(C(F)(F)F)(C(F)(F)F)N=C(C(C(F)(F)F)C(F)(F)F)O1 (stereo unspecified)", "No"],
  ["Cc1cccc2sc(NC(=O)c3cc([N+](=O)[O-])ccc3Cl)nc12", "No"],
  ["C=CN1CCN(c2ccccc2)P1(=O)Oc1ccccc1 (stereo unspecified)", "No"],
  ["Cc1ccccc1-n1c(N)c(-c2nc3ccccc3[nH]2)sc1=S", "No"],
  ["Nc1ccc(C(=O)NN2C(=O)C(Cl)C2c2cccc([N+](=O)[O-])c2)cc1 (stereo unspecified)", "No"],
  ["O=C(NNC(=O)c1csc(NC(=S)NC2CCCCC2)n1)c1ccccc1", "No"],
  ["COC(=O)C(CCC1C=CCC1)/N=C\\c1ccccc1 (stereo unspecified)", "No"]
]}

====

GI50 for assorted compounds
# Tested on: HOP-18
# MEASUREMENT_DESCRIPTION: NCI tumour cell line growth inhibition, 48 h
Activity calls are given as the source filed them. Rule as the data show it: active = GI50 up to about 1.1 µM and inactive = higher.

{"columns": ["COMPOUND", "GI50"],
 "data": [
  ["Clc1ccc(C2=NN(c3ccccc3)C3c4cc(Br)ccc4OCC23)cc1 (stereo not drawn)", "> 100 µM (inactive)"],
  ["COc1ccc(OC)c(/C(C)=N/NC(N)=S)c1", "> 100 µM (inactive)"],
  ["CC1=NC2(C(=O)O)C3(C(=O)O)N=C(C)OC3(C(F)(F)F)C2(C(F)(F)F)O1 (stereo not drawn)", "> 100 µM (inactive)"]
]}

====

# Tested on: M14
# MEASUREMENT_DESCRIPTION: NCI tumour cell line growth inhibition, 48 h
Activity calls are given as the source filed them. Rule as the data show it: active = GI50 up to about 1.1 µM and inactive = higher.

{"columns": ["MOLECULE", "TARGET_OR_TEST_SYSTEM", "GI50"],
 "data": [
  ["C#Cc1c(C)c(/C=C/C(C)=C/C(=O)OC)n(C)c1C", "M14", "> 100 µM (inactive)"],
  ["COC(=O)C1CC2c3c(c4ccccc4n3C)CC(C1=O)N2C (stereo unspecified)", "M14", "37.8 µM (inactive)"],
  ["O=C(NNC(=O)c1csc(NC(=S)NC2CCCCC2)n1)c1ccccc1", "M14", "13.5 µM (inactive)"],
  ["CC(C)(C)C1(O)C=C(O)C(=O)N1NC(=O)c1ccccc1Nc1ccccc1 (stereo unspecified)", "M14", "76.4 µM (inactive)"],
  ["Nc1nc2c(nnn2C2C=C(CO)C(O)C2O)c(=O)[nH]1 (stereo unspecified)", "M14", "> 100 µM (inactive)"],
  ["COc1cc2c(cc1OC)C1C(O)C(OC)C=C3CC[N+](C)(C2)C31 (stereo unspecified)", "M14", "> 100 µM (inactive)"],
  ["COc1cc(C2c3cc4c(cc3OC(N3CCOCC3)C2C)OCO4)cc(OC)c1OC (stereo unspecified)", "M14", "0.708 µM (active)"],
  ["O=C(COc1ccc(OCC(=O)N2C(=O)CC/C2=N\\c2ccc(Cl)cc2)cc1)N1C(=O)CS/C1=N\\c1ccc(Cl)cc1", "M14", "89.7 µM (inactive)"],
  ["CCCCc1c(N(C)C)c(OC(C)=O)c(-c2cn(C)c3ccccc23)oc1=O", "M14", "16.8 µM (inactive)"],
  ["N#CCC(=O)N1CCCOCCC1", "M14", "> 100 µM (inactive)"],
  ["COc1ccc(OC)c(/C(C)=N/NC(N)=S)c1", "M14", "> 100 µM (inactive)"],
  ["CC(C)(C)c1cc2ccc(C(N)=O)cc2c(=O)[nH]1", "M14", "> 100 µM (inactive)"],
  ["O=S1(=O)NN=C(NCc2ccc(Cl)c(Cl)c2)c2ccccc21", "M14", "> 100 µM (inactive)"],
  ["COc1ccc(/N=C\\c2ccc(N(CCC#N)CCC#N)cc2)cc1", "M14", "28.1 µM (inactive)"],
  ["N=C(N)NS(=O)(=O)c1ccc(Nc2c3ccccc3nc3c(C(=O)Nc4ccc(S(N)(=O)=O)cc4)ccc(Cl)c23)cc1", "M14", "> 100 µM (inactive)"],
  ["CCCCN/N=N/c1cn(C2OC(CO)C(O)C2O)c(=O)[nH]c1=O (stereo unspecified)", "M14", "> 100 µM (inactive)"],
  ["CC1=C(/C=C/Cl)CC(Cl)C(C)(Cl)C1 (stereo unspecified)", "M14", "> 100 µM (inactive)"],
  ["CCOC(=O)c1cn2c(n1)sc1c(Cl)c(Cl)ccc12", "M14", "9.38 µM (inactive)"],
  ["Cc1ccc(NC(=O)c2c(C)nc(=O)n3c2N(/N=C/c2ccc(Cl)cc2)CC3)cc1", "M14", "17.1 µM (inactive)"],
  ["CCC1(C)NN=c2s/c(=C/c3ccc(OC)cc3)c(=O)n2N1 (stereo unspecified)", "M14", "> 100 µM (inactive)"],
  ["COc1ccc2nc3cc(Cl)ccc3c(NCCCN(Cc3cc(OC)c(OC)c(OC)c3)Cc3cc(OC)c(OC)c(OC)c3)c2c1", "M14", "1.78 µM (inactive)"],
  ["C/C(=N\\c1c2ccccc2nc2ccccc12)N(C)C", "M14", "11.5 µM (inactive)"],
  ["CCOC(=O)c1c2c(n(C)c1-c1ccccc1)C(=O)C(C)=CC2=O", "M14", "3.66 µM (inactive)"],
  ["CN(C)Cc1ccc(-c2cc3onc(-c4ccccc4)c3c(=O)n2C)cc1", "M14", "15.1 µM (inactive)"],
  ["CCOC(=O)/C=C(\\C)c1ccc(C)cc1C", "M14", "> 100 µM (inactive)"],
  ["O=C1c2cccnc2-c2nccc3c2c1nc1ccc(Br)cc13", "M14", "0.0243 µM (active)"],
  ["O=c1ccc2c(Cl)cccc2o1", "M14", "> 100 µM (inactive)"],
  ["COC1(O)C(=O)c2ccccc2OC1(OC)c1ccccc1 (stereo unspecified)", "M14", "> 100 µM (inactive)"],
  ["NC(=O)NC1C(c2ccccc2)=C1c1ccccc1", "M14", "19.1 µM (inactive)"],
  ["Cc1ccc(S(=O)(=O)NC(=O)NC(Cc2c[nH]c3ccccc23)C(=O)O)cc1 (stereo unspecified)", "M14", "> 100 µM (inactive)"],
  ["C=CN1CCN(c2ccccc2)P1(=O)Oc1ccccc1 (stereo unspecified)", "M14", "40.2 µM (inactive)"],
  ["Clc1ccc(CN2COc3c(cc(Cl)c4cccnc34)C2)cc1", "M14", "1.68 µM (inactive)"],
  ["Cc1ccc(S(=O)(=O)N/N=C2\\C=CC3(CC2)C(=O)N(I)c2ccccc23)cc1 (stereo unspecified)", "M14", "> 100 µM (inactive)"],
  ["CC1CC2OC(=N)C1(C#N)C2(C#N)C#N (stereo unspecified)", "M14", "29.6 µM (inactive)"],
  ["COC(=O)/C(Cl)=C1/CC1COCc1ccccc1 (stereo unspecified)", "M14", "17 µM (inactive)"],
  ["Nc1ncnc2oc(-c3cccs3)nc12", "M14", "> 100 µM (inactive)"]
]}
